Origin of the recorded values: patent US20240270821A1

Molecular target: human glucagon receptor (human) (UniProt P47871)
Sequence (P47871 26-477): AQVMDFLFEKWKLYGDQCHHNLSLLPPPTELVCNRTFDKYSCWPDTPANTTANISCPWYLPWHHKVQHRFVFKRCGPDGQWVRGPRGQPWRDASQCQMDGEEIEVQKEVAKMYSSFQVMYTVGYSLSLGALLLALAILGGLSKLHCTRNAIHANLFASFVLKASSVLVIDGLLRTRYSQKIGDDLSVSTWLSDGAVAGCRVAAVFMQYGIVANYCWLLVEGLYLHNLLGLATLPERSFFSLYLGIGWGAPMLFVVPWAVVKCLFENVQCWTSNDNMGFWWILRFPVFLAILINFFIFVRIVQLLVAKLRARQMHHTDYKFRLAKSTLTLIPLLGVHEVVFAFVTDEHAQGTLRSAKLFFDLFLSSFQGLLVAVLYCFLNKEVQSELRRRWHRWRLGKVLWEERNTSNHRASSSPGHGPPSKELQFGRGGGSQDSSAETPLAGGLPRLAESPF
Experiment: cell-based or functional assay
Non-standard residues stand in square brackets, D forms with d. No end group written: not given here. αMePhe(2-F) = C[C@](N)(Cc1ccccc1F)C(=O)O; Aib = CC(C)(N)C(=O)O
The reader will find reported cAMP Rel EC50 (1% HSA) values listed item by item below.
Quick note: give the figure in nM, leave out the unit.

// below: answered binders
YXQGTFTSDXSQXLDKKAQXAFIEXLIEXGPSSGEPPPSGEEE (non-natural residues (Aib, 4Pal, Me4Pal, αMeL); lipidated Lys; C-amide; synthetic construct; SITE 2: note = 2-Aminoisobutyric Acid; SITE 10: note = 3-(4-Pyridyl)-L-alanine; SITE 13: note = alpha-methyl-leucine; SITE 17: note = Lysine is chemically modified through conjugation of the epsilon-amino group of the Lysine side chain with (gamma-Glu)2-CO-(CH2)16-CO2H; SITE 20:) [Example 1124] ... 400
YXQGTFTSDXSQXLDXKAQXAFIEYLIQXGPSSGEPPPSGSEE (not fully specified; non-natural residues, γGlu-C18 diacid acyl on K, C-terminal amide; synthetic construct; SITE 2: note = 2-Aminoisobutyric Acid; SITE 10: note = 3-(4-Pyridyl)-L-alanine; SITE 13: note = alpha-methyl-leucine; SITE 16: note = L-ornithine; SITE 17: note = Lysine is chemically modified through conjugation of the epsilon-amino group of the Lysine side chain with D-Glutami) [Example 1102] ... 516
YXQGTXTSDXXIXLDXKAQXXFIEXLIEGGPSSGEPPPEGTGE (synthetic construct; SITE 2: note = 2-Aminoisobutyric Acid; SITE 6: note = alpha-methyl-2-fluoro-L-phenylalanine; SITE 10: note = 3-(4-Pyridyl)-L-alanine; SITE 11: note = alpha-methyl-L-serine; SITE 13: note = alpha-methyl-leucine; SITE 16: note = L-ornithine; SITE 17: note = Lysine is chemically mo) [Example 697] ... 130
YXQGTFTSDXSQXLDXKAQXAFIEYLIAXGPSSGEPPPSGSEE (non-natural residues, acylated Lys ((γGlu)2-C18 diacid), C-terminal amide; synthetic construct; SITE 2: note = 2-Aminoisobutyric Acid; SITE 10: note = 3-(4-Pyridyl)-L-alanine; SITE 13: note = alpha-methyl-leucine; SITE 16: note = L-ornithine; SITE 17: note = Lysine is chemically modified through conjugation of the epsilon-amino group of the Lysine side chain with (gamma-Gl)) [Example 1092] ... 506
Y[Aib]QGT[αMePhe(2-F)]TSDYSKLLDKIAQKAFIQYLIEGGPSSGEPPPSEG-NH2 (not fully specified (residue 20)) [Example 338] ... 659

Ask: // cAMP Rel EC50 (1% HSA) lookup, key: YXQGTFTSDXSQXLDKKAQXAFIEYLIEXGPSSGAPPPSGS (non-natural residues; C18 diacid-γGlu-e on Lys; C-terminal amide; synthetic construct; SITE 2: note = 2-Aminoisobutyric Acid; SITE 10: note = 3-(4-Pyridyl)-L-alanine; SITE 13: note = alpha-methyl-leucine; SITE 17: note = Lysine is chemically modified through conjugation of the epsilon-amino group of the Lysine side chain with D-Glutamic acid-(gamma-Glu)-CO-(CH2)16) [Example 920]
Result: 1090
